Where a name gives a salt, the structure may show the parent alone.
readout: MIC (µg/mL)
Respond with the bare value in µg/mL.

The recorded MIC with Aspergillus fumigatus IFO 6344 for CN(C)Cc1cc2c(o1)CCN(C(=O)c1ccc(C(=O)c3ccc(Cl)cc3)cc1)C2 [Example 32, hydrochloride] was 2

Sample CN(C)Cc1cc2c(o1)CN(C(=O)CCCCCc1ccccc1)CC2 [Example 5, hydrochloride] , system: Aspergillus fumigatus IFO 6344. Its MIC is 8

Reported MIC (Aspergillus fumigatus IFO 6344) for entry CN(C)Cc1cc2c(o1)CCN(C(=O)CCCCSc1ccccc1)C2 [Example 44, hydrochloride] is 8

Case CN(C)Cc1cc2c(o1)CCN(C(=O)CCCCCc1ccccc1)C2 [Example 6, hydrochloride] , Aspergillus fumigatus IFO 6344, MIC recorded as 16

====

Consider the following molecules; for each one, report its pIC50.
Target: 2,3-oxidosqualene cyclase (Rattus norvegicus)
Construct: The supernatant was thus obtained as a crude enzyme solution
Sequence (P48450 whole entry): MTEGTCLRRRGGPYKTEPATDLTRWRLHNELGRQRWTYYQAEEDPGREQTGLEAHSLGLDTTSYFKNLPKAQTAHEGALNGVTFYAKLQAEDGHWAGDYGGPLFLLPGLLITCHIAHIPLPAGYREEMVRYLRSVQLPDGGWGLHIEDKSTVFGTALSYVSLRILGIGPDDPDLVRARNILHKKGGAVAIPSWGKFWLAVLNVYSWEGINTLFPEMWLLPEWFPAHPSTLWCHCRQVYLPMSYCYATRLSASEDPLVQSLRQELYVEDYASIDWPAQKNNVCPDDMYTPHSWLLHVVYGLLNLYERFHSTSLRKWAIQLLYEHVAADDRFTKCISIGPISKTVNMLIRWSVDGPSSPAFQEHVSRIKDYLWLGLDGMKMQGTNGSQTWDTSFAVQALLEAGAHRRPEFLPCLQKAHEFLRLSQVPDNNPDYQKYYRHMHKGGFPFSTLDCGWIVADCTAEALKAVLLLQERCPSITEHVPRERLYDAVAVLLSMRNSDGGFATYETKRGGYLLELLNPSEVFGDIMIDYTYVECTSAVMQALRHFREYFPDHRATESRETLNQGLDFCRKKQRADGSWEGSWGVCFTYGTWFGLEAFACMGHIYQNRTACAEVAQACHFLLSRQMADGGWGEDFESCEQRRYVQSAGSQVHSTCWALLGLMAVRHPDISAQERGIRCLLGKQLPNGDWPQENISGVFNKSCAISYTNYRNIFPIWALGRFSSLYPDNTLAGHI
Test: Inhibition of 2,3-oxidosqualene cyclase activity (crude rat liver enzyme, lanosterol production, GC/Mass)
Settings: 37° C., 20 minutes, pH 7.5; read-out: Oxidosqualene Cyclase Inhibitory Activity IC50
Experimental: Inhibition of 2,3-oxidosqualene Cyclase Activity 1) Preparation of Crude Rat Enzyme After a male SD rat (6 weeks of age) was sacrificed by bleeding, the liver was excised. About 50 g of the liver was washed with ice-cold physiological saline and homogenized in 75 ml of ice-cold buffer [100 mM potassium phosphate buffer (pH 7.4), 15 mM nicotinamide, 2 mM MgCl2 ] and centrifuged at 10,000×g for 20 minutes (4° C.). […]
Structures can show the parent of a compound that is named as a salt.
In textbook form, pIC50 equals minus log to base ten of the concentration in mol/L.

get_value(item= CN(C)Cc1cc2c(o1)CN(C(=O)c1ccc(C(=O)c3ccccc3)cc1)CC2 [Example 11, hydrochloride] , readout=pIC50) returns 7.08

The reported pIC50 of the molecule CN(C)Cc1cc2c(o1)CN(C(=O)CCCCCc1ccccc1)CC2 [Example 5, hydrochloride] was 7.82
